Recorded values, source ChEMBL document CHEMBL3988442.

# Target: Ubiquitin-activating enzyme e1, putative (Leishmania donovani (strain BPK282A1)) (UniProt E9BSI1)
# Sequence (E9BSI1 as listed by the source): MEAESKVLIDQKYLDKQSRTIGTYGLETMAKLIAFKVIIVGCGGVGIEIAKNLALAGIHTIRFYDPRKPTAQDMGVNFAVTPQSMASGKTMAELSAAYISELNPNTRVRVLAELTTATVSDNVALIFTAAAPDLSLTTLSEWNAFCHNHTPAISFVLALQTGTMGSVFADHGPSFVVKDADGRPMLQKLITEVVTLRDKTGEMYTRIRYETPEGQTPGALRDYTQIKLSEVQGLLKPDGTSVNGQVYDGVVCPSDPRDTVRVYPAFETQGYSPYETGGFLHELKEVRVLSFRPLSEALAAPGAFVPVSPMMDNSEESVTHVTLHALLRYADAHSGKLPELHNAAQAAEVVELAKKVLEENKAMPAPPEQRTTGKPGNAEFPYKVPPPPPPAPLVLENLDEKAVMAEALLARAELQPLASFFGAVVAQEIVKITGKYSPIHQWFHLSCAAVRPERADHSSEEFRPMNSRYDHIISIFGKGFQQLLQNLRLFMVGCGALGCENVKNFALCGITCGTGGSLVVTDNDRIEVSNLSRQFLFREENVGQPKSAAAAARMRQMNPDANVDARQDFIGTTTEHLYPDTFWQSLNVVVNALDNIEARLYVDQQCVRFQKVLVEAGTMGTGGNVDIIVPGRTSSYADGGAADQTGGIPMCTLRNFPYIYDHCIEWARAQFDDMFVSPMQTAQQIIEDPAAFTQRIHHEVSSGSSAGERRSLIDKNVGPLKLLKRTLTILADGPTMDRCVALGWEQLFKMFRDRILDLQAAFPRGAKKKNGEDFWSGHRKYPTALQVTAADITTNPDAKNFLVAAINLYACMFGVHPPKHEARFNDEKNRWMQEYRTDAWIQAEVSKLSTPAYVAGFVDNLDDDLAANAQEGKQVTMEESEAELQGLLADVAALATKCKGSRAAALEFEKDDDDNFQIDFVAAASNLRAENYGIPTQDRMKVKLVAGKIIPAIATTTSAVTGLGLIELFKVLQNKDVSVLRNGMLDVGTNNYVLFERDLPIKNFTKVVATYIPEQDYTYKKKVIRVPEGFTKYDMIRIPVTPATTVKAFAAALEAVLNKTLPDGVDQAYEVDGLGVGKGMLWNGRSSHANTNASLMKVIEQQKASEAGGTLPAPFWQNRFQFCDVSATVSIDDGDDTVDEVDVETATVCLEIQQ
# Measurement Description: Leishmania donovani Ubiquitin Activating Enzyme (LdE1)
# Type: functional
# Design: scale not given: direction of the effect not stated beside the values
# Settings: 30 µM
Potency and affinity values are given separately.
Mark yes (1) only when Percent Effect stays strictly below 5%. Values equal to the cut-off are no (0).

Request: Decide: Percent Effect of `O=C(c1ccc2c(c1)CCC2)N1C[C@@H](CN2CCOCC2)[C@@H](CO)C1` strictly below 5%?
Response: yes (1)

Request: Decide: Percent Effect of `CNS(=O)(=O)c1cccc(CNc2cc(C(F)(F)F)ccn2)c1` strictly below 5%?
Response: no (0)

Request: Decide: Percent Effect of `Cn1cccc1C(=O)N1CCc2ncnc(N3CCCC3)c2CC1` strictly below 5%?
Response: no (0)

Request: Decide: Percent Effect of COCc1nc(C(=O)N2CCCC2c2ccccc2C)cs1 (stereo not drawn) strictly below 5%?
Response: yes (1)

Request: Decide: Percent Effect of Cc1ccc(N2CCCN(C(=O)CC3CCCO3)CC2)nn1 (stereo not drawn) strictly below 5%?
Response: no (0)

Request: Decide: Percent Effect of `CN1CCN(Cc2cn3c(n2)CN(Cc2cccnc2)CC3)CC1` strictly below 5%?
Response: no (0)

Request: Decide: Percent Effect of `COc1cc(CNC(=O)c2c(C)noc2C(C)C)ccn1` strictly below 5%?
Response: no (0)

Request: Decide: Percent Effect of Cc1nc(CN2CC3(CCN(c4ncc(F)cn4)C3)CC2=O)cs1 (stereo not drawn) strictly below 5%?
Response: yes (1)

###

Exercise: state measured Percent Effect for each of the compounds provided.
# Target: Ubiquitin-activating enzyme e1, putative (Leishmania donovani (strain BPK282A1)) (UniProt E9BSI1)
# Measurement Description: Leishmania donovani Ubiquitin Activating Enzyme (LdE1)
# Format: functional
# Design: scale not given: direction of the effect not stated beside the values
# Settings: 30 µM
Measured potencies and affinities stand elsewhere.
Give just the numeric value; % need not be written.

compound `CCc1nc(C)c([C@H]2CN(C)C[C@@H]2C(=O)Nc2ccc(OC)cc2)[nH]1` , Percent Effect observed: 5.41

compound `O=C(C1CCOCC1)N1CCO[C@H]2[C@@H](OCc3ccncc3)CC[C@@H]21` , Percent Effect observed: 16.2

compound Cn1cc(C2CCCN2C(=O)CCCOc2ccc(F)cc2F)cn1 (stereo not drawn) , Percent Effect observed: 10.1

compound `O=C(c1cnn2c1OCCC2)N1CCN(C/C=C/c2ccccc2)CC1` , Percent Effect observed: 7.79

compound `Cc1nc(N2CCCCC2)ncc1-c1cc(O)[nH]n1` , Percent Effect observed: 1.33

compound `CCOC(=O)CCNC(=O)N1CCN(c2nc3ccccc3n2C)CC1` , Percent Effect observed: 10.4

compound COCC1CC2(CCN(C(=O)c3ccc(OC)c(Cl)c3)CC2)CO1 (stereo not drawn) , Percent Effect observed: 15.6

compound CCN(CC1CCCO1)C(=O)Nc1ccc(F)cc1OC (stereo not drawn) , Percent Effect observed: 17.7

###

# Target: Tyrosyl-tRNA synthetase, putative (Trypanosoma cruzi (strain CL Brener)) (UniProt Q4DSP6)
# Sequence (Q4DSP6 as listed by the source): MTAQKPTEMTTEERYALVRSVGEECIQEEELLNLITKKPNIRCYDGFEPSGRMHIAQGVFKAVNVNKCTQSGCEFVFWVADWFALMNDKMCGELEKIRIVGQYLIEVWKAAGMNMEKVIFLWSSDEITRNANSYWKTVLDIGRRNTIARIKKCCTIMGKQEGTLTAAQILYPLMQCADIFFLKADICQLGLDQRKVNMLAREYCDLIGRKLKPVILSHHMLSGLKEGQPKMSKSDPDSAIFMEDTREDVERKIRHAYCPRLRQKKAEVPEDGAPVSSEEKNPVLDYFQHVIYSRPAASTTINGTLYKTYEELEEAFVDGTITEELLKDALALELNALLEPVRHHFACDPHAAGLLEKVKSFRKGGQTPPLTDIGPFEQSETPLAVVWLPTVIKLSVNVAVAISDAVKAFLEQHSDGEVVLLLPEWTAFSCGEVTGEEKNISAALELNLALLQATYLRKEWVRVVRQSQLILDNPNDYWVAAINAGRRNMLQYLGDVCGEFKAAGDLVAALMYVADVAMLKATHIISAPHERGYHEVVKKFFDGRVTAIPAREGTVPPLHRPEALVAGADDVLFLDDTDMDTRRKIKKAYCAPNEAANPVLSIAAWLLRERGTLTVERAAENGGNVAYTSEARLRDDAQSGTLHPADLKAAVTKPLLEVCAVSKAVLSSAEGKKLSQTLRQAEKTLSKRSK
# Measurement Description: Trypanosoma cruzi tyrosyl tRNA synthetase (TcYRS) SOP
# Type: functional
# Parameters: scale not given: direction of the effect not stated beside the values
# Settings: 30 µM
Exercise: state measured Percent Effect for each of the compounds provided.
Give just the numeric value; % need not be written.

compound `O=C(NCCN1CCOCC1)c1n[nH]c(=O)c2ccccc12` , Percent Effect observed: 21.9

compound `NC(=O)COc1ccc(CNCc2ccc(F)cc2F)cc1` , Percent Effect observed: 12.8

compound `CN1CCN(CCCNC(=O)c2cc(Cl)c3c(c2)OCO3)CC1` , Percent Effect observed: 15.4

compound O=C1N(Cc2cccc(F)c2F)CCCC1(O)CNC1CCCC1 (stereo not given) , Percent Effect observed: 6.17

compound NC(=O)C1CN(Cc2c[nH]cn2)CCN(C2CCOCC2)C1 (stereo not given) , Percent Effect observed: 19.5

compound Cc1cc(C)cc(C2(C(=O)N3CCCC(n4cncn4)C3)CC2)c1 (stereo not given) , Percent Effect observed: 18.3

compound COc1c(C2CCCN2C(=O)c2csc(C(C)C)n2)c(C)nn1C (stereo not given) , Percent Effect observed: 9.76

compound `CC(C)N1CCC(NCc2cccnc2N(C)C)CC1` , Percent Effect observed: 8.64

compound `Cc1nc(CO[C@@H]2CN(Cc3cnn(C)c3)[C@@H]3COC[C@@H]32)cs1` , Percent Effect observed: 11.1

compound CC(O)CN1CCN(C(=O)c2cnn(-c3ccc(Cl)cc3)c2)CC1 (stereo not given) , Percent Effect observed: 8.64

compound `O=C(c1cn(-c2cc(N3CCOCC3)ncn2)cn1)N1CCSCC1` , Percent Effect observed: 15

compound Cc1cn2c(n1)CCC(NC(=O)c1cnc(C)nc1C(C)C)C2 (stereo not given) , Percent Effect observed: 18.8

compound CCn1cc2c(n1)CN(Cc1ccoc1)CC2COCC1CC1 (stereo not given) , Percent Effect observed: 8.54

compound `COc1ccc(-c2nc(CN3CCN(CCO)CC3)co2)cc1` , Percent Effect observed: 24.4

compound Cc1nn(C)c(C)c1C1COCCN1c1ncnc2sccc12 (stereo not given) , Percent Effect observed: 3.7

compound O=C(c1ccncc1)N1CCC(c2nc(O)cc(-c3cccnc3)n2)C1 (stereo not given) , Percent Effect observed: 11.5

compound `CN(Cc1nnc2n1CCC2)C(=O)NCCc1ccc2c(c1)OCO2` , Percent Effect observed: 16.1

compound COc1ccc(NC(=O)C(c2cccc(F)c2)N2CCOCC2)cc1 (stereo not given) , Percent Effect observed: 10.4

compound `Cc1ccc(CN2CC[C@H]3[C@@H]2CCC(=O)N3CCN2CCCC2)s1` , Percent Effect observed: 1.28

compound COc1ccc(F)cc1C(C)NC(=O)Nc1nnc(C)s1 (stereo not given) , Percent Effect observed: 16.1

###

# Target: Protein translocase subunit SecA (Escherichia coli (strain K12))
# Measurement Description: Assay to Identify E. coli SecA ATPase Inhibitors
# Assay type: functional
# Set-up: scale not given: direction of the effect not stated beside the values
# Settings: 30 µM
Measured potencies and affinities stand elsewhere.
Exercise: state measured Percent Effect for each of the molecules provided.
Give just the numeric value; % need not be written.

molecule `Cc1cc(N2CCN(CC(=O)N(C)C)CC2)nc(-c2ccncc2)n1` , Percent Effect observed: -6.79

molecule `Cc1cc(C[C@@H]2COC[C@H]2NCc2ccc(Br)s2)on1` , Percent Effect observed: -7.36

molecule CC(C)n1ncc2c1NC(=O)CC21C(=O)Nc2c(Cl)cccc21 (stereo not given) , Percent Effect observed: -1.42

molecule `CN(C(=O)CCNC(=O)NC1CCCCC1)c1ccccc1` , Percent Effect observed: -3.57

molecule `Cc1ncsc1CN1C[C@H](C(=O)N2CCCO2)[C@@H]2CCO[C@@H]2C1` , Percent Effect observed: -2.57

molecule `CCNC(=O)Nc1ccc2c(ccn2CC(=O)N(CC)CC)c1` , Percent Effect observed: -2.78

molecule CC(C)C1CN(c2ncc(F)cn2)CCC(=O)N1Cc1ccc(F)cc1 (stereo not given) , Percent Effect observed: -2.05

molecule `O=C([C@H]1C[C@H]2OCC[C@H]2N(C(=O)C2CCOCC2)C1)N1CCCCO1` , Percent Effect observed: -5.69

molecule O=C(NCc1ccccn1)NC1CCOc2ccccc21 (stereo not given) , Percent Effect observed: -4.23

molecule COCCN1C(=O)CC(N2CCN(c3ccc(OC)cc3)CC2)C1=O (stereo not given) , Percent Effect observed: 1.03

###

# Target: Tyrosyl-tRNA synthetase, putative (Trypanosoma cruzi (strain CL Brener))
# Measurement Description: Trypanosoma cruzi tyrosyl tRNA synthetase (TcYRS) _High Tyrosine SOP; further: in the data most compounds retested in dose-response had high values
# Type: functional
# Design: scale not given: direction of the effect not stated beside the values
# Settings: 30 µM
Measure Name: Percent Effect (%)
Give just the numeric value; % need not be written.

molecule `CCN(C)c1ncnc2c1CCN(C(=O)c1ccno1)CC2` , Percent Effect observed: 4.17

molecule `CCc1ncnc2c1CCN(C(=O)Cc1ccccn1)CC2` , Percent Effect observed: 1.06

molecule `CN(C(=O)c1cccc(C(=O)NCC(F)(F)F)c1)c1ccccc1` , Percent Effect observed: -1.07

molecule `COc1cccc2cc(CNC(C)(C)C(=O)N3CCC(O)CC3)oc12` , Percent Effect observed: 6.4

molecule O=C1N(Cc2cccc(F)c2F)CCCC1(O)CNC1CCCC1 (centres undefined) , Percent Effect observed: 3.83

molecule `O=C(NCc1nnc2ccccn12)N1CCc2sccc2C1` , Percent Effect observed: 2.08

molecule `O=C(NCC1(CO)CC1)c1cccc2ccccc12` , Percent Effect observed: 6.45

molecule `CC(C)c1noc(CCCC(=O)N2CCN(Cc3ccncc3)CC2)n1` , Percent Effect observed: 5.42

molecule Cc1nc(CN2CCCC(N(C)Cc3nnsc3Cl)C2)no1 (centres undefined) , Percent Effect observed: 5.71
